- TARGET_OR_SYSTEM: human TYK2 (JH2domain-pseudokinase) (Homo sapiens (Human), UniProt P29597)
- Sequence (P29597 556-888): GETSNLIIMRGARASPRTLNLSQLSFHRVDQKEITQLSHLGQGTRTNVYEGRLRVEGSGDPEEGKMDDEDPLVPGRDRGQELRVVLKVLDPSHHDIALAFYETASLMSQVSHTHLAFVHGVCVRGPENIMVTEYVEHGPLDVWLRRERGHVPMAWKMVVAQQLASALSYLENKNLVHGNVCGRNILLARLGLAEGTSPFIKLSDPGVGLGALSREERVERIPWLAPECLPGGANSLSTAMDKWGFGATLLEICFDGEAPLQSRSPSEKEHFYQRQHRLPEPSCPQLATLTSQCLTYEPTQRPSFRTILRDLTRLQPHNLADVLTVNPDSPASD
- MEASUREMENT_NOTES: TYK2 JH2 Domain Binding Assay (KINOMEscan competition binding)
- CONDITION_CONTEXT: KINOMEscan; 11-point 3-fold dilution, top concentration 30,000 nM; Kd measurements in duplicate; read-out: TYK JH2 (Kd)
Property: log10 of Kd; scope: individual molecules
Please note: log10 values; quantity Kd; unit nM.

The following molecules have reported results that may help.
molecule=COc1ccccc1Nc1nc(N2CCCN(C(C)=O)CC2)ncc1C(N)=O target_or_system="human TYK2 (JH2domain-pseudokinase) (Homo sapiens (Human), UniProt P29597)" assay_value=3.26
molecule=CNC(=O)[C@@H]1CCN(c2ncc(C(N)=O)c(Nc3ccc(C4CC4)nc3)n2)C1 target_or_system="human TYK2 (JH2domain-pseudokinase) (Homo sapiens (Human), UniProt P29597)" assay_value=1.58

Problem: Name the reported log10 of Kd value associated with the molecule CNC(=O)c1cnc(N2CCCN(C(C)=O)CC2)nc1Nc1ccccc1OC
Result: 3.69

Problem: Please give the measured log10 of Kd for this molecule: CNC(=O)c1cnc(N2CCC(C(=O)O)CC2)nc1Nc1ccccc1S(C)(=O)=O
Result: 2.20

Problem: GET /values?readout=log10 of Kd&item= COc1c(Nc2nc(N3CCCN(C(C)=O)CC3)ncc2C(N)=O)cccc1-c1ncc(F)cn1
Result: 2.57

Problem: Quick one: log10 of Kd for CC(=O)N1CCN(c2ncc(C(N)=O)c(Nc3ccccc3S(C)(=O)=O)n2)C(C)C1 (racemic) ?
Result: 2.08

* * *

- TARGET_OR_SYSTEM: human TYK2 (JH2domain-pseudokinase) (Homo sapiens (Human), UniProt P29597)
- MEASUREMENT_NOTES: TYK2 JH2 Domain Binding Assay (KINOMEscan competition binding)
- CONDITION_CONTEXT: KINOMEscan; 11-point 3-fold dilution, top concentration 30,000 nM; Kd measurements in duplicate; read-out: TYK JH2 (Kd)
Counter-ions that a name gives are not always drawn.
Lab note: anything with Kd below 700 nM is marked Criterion met; values at 700 nM or higher are marked Criterion not met.

Study these solved cases before continuing.
compound="CNC(=O)c1cnc(N2CCN(C(C)=O)CC2C)nc1Nc1ccccc1OC (stereo not drawn)" target_or_system="human TYK2 (JH2domain-pseudokinase) (Homo sapiens (Human), UniProt P29597)" label_value="Criterion not met"
compound=CCOC(=O)C1CCN(c2ncc(C(=O)NC)c(Nc3ccccc3OC)n2)CC1 target_or_system="human TYK2 (JH2domain-pseudokinase) (Homo sapiens (Human), UniProt P29597)" label_value="Criterion not met"
compound=CNC(=O)c1cnc(N2CCCC2)nc1Nc1ccc(C(=O)N2CCOCC2)cc1 target_or_system="human TYK2 (JH2domain-pseudokinase) (Homo sapiens (Human), UniProt P29597)" label_value="Criterion met"
compound=O=C(NO)c1cnc(N2CCCC2)nc1Nc1ccc(C2CC2)nc1 target_or_system="human TYK2 (JH2domain-pseudokinase) (Homo sapiens (Human), UniProt P29597)" label_value="Criterion met"
compound="NC(=O)c1cnc(N2CCCNCC2)nc1Nc1ccc(C2CC2)nc1 [Compound 46, Hydrochloride]" target_or_system="human TYK2 (JH2domain-pseudokinase) (Homo sapiens (Human), UniProt P29597)" label_value="Criterion not met"

Problem: Dear colleague, could you confirm whether Kd of CNC(=O)c1cnc(N2CC(C(=O)NC)C2)nc1Nc1ccc(C2CC2)nc1 falls below 700 nM? Thanks.
Result: Criterion not met

Problem: Consider the compound CCOC(=O)C1CCN(c2ncc(C(N)=O)c(Nc3cccc(-c4ncc(F)cn4)c3OC)n2)CC1 . Is its Kd strictly less than 700 nM?
Result: Criterion met

Problem: Find out if reported Kd for CS(=O)(=O)c1ccccc1Nc1nc(N2CCCNCC2)ncc1C(N)=O [Compound 79, hydrochloride] is less than 700 nM
Result: Criterion not met
